Provenance of the data: the NIST ThermoML archive (doi:10.1021/je500093z)

testSettings: 313.15 K; 101.33 kPa; Liquid; Vibrating tube method
attributeMeasured: mass density (kg/m3)
All answers are understood in kg/m3, so give the number only.

So what does the record say about mass density for CCCCn1cc[n+](C)c1.F[P-](F)(F)(F)(F)F [1-butyl-3-methylimidazolium hexafluorophosphate] ? 1355

So what's the measured mass density for this one? CCCCn1cc[n+](C)c1.O=S(=O)([O-])O [1-butyl-3-methylimidazolium hydrogen sulfate] 1214

Returns the measured mass density for the input compound. Input: CC(C)C[P+](C)(CC(C)C)CC(C)C.Cc1ccc(S(=O)(=O)[O-])cc1 [triisobutylmethylphosphonium p-toluenesulfonate] 1059

Could you tell me which mass density is on file for CCn1cc[n+](C)c1.COS(=O)(=O)[O-] [1-ethyl-3-methylimidazolium methylsulfate] ? 1282

---
May I ask what mass density has been recorded for CCCCCCCC[n+]1ccn(C)c1.[Cl-] [1-methyl-3-octylimidazolium chloride] ? 1001

Entry COS(=O)(=O)[O-].Cn1cc[n+](C)c1 [1,3-dimethylimidazolium methylsulfate] has what mass density? 1316

Give the measured mass density of CCCCCCCC[n+]1ccn(C)c1.F[P-](F)(F)(F)(F)F [1-octyl-3-methylimidazolium hexafluorophosphate] . 1223

Could you tell me which mass density is on file for CCCC[n+]1ccc(C)cc1.F[B-](F)(F)F [1-butyl-4-methylpyridinium tetrafluoroborate] ? 1179

Report mass density for CCCCCCn1cc[n+](C)c1.F[P-](F)(F)(F)(F)F [1-hexyl-3-methylimidazolium hexafluorophosphate] please. 1280
